- tested target: Helios (Homo sapiens, UniProt Q96SW2+Q9UKS7)
- Sequence (Q9UKS7 whole entry): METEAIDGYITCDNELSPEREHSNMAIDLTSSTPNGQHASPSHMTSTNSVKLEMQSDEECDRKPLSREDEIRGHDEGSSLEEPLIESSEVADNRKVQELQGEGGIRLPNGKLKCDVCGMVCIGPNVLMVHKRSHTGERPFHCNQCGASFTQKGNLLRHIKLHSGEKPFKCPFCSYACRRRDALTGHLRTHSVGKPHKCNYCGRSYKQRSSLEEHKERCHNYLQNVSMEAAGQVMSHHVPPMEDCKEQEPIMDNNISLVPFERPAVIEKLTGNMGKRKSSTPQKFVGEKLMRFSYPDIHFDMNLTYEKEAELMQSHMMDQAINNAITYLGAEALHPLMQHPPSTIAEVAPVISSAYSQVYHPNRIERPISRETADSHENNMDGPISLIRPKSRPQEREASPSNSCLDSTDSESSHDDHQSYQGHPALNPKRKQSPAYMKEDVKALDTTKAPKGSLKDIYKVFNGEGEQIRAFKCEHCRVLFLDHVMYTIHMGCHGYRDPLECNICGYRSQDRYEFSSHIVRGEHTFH
- Sequence (Q96SW2 whole entry): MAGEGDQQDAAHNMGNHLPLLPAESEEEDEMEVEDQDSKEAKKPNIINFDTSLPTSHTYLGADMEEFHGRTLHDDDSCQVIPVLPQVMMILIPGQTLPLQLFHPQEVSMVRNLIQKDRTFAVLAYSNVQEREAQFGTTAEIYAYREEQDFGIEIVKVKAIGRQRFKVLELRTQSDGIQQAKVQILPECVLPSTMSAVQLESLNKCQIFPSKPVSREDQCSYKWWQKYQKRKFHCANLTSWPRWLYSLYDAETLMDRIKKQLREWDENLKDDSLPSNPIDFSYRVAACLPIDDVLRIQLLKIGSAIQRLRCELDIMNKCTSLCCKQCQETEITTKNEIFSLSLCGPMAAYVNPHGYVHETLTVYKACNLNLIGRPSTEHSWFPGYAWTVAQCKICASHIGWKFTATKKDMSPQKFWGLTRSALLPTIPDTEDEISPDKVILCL
- Sequence (Q16531 whole entry partner): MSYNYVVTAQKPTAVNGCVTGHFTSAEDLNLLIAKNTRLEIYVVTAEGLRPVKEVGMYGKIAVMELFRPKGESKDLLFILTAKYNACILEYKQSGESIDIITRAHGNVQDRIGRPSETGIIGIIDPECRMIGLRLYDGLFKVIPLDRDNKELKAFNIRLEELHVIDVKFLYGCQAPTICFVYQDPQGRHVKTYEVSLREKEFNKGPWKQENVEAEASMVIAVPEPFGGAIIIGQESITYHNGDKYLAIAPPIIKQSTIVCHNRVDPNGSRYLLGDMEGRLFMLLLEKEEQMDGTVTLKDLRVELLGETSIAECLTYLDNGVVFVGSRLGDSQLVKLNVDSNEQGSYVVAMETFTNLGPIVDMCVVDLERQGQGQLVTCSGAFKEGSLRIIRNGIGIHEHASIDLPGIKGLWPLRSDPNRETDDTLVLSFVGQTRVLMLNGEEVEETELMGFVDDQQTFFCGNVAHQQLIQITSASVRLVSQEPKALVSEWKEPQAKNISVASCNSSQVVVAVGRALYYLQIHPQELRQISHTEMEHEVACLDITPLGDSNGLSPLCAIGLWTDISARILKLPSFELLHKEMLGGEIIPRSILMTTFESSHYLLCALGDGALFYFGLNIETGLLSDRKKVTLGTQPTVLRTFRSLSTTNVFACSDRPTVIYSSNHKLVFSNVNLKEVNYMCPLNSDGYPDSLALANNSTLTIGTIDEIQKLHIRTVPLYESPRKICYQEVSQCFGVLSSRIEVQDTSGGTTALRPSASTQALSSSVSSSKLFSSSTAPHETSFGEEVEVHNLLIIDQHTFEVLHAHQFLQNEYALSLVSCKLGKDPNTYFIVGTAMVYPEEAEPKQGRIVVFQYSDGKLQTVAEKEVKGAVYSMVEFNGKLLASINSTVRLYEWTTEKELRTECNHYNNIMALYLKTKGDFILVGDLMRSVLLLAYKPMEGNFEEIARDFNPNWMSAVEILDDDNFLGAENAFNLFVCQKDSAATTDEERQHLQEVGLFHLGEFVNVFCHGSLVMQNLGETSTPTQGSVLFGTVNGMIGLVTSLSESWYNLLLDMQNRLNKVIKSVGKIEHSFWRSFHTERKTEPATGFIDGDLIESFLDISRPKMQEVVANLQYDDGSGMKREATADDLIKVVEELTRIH
- test: Helios Cellular Degradation Assay (Helios readout)
- Assay type: cell-based
- Set-up: endogenous in cells; host or cells: Jurkat
- setup conditions: Jurkat cells, 72 h incubation, Helios-PE antibody staining, flow cytometry; read-out: Helios Jurkat IC50
Measured DC50 by item

>  <molecule>
CCN(CC)c1nc(-c2ccc3c(c2)CN(C2CCC(=O)NC2=O)C3=O)nc2ccc(Cl)cc12 (stereo not shown) [Example 15]

>  <tested target>
Helios (Homo sapiens, UniProt Q96SW2+Q9UKS7)

>  <DC50>
> 20 µM

$$$$
>  <molecule>
Nc1cc(N2CCN(Cc3ccccc3)CC2)cc(-c2ccc3c(c2)CN(C2CCC(=O)NC2=O)C3=O)n1 (stereo not shown) [Example 184]

>  <tested target>
Helios (Homo sapiens, UniProt Q96SW2+Q9UKS7)

>  <DC50>
≥ 10 µM

$$$$
>  <molecule>
N#Cc1ccnnc1-c1ccc2c(c1)CN(C1CCC(=O)NC1=O)C2=O (stereo not shown) [Example 76]

>  <tested target>
Helios (Homo sapiens, UniProt Q96SW2+Q9UKS7)

>  <DC50>
> 20 µM

$$$$

Moving on to another molecule below.
Qu. Specify measured DC50 for Nc1ccc([N+](=O)[O-])c(-c2ccc3c(c2)CN(C2CCC(=O)NC2=O)C3=O)n1 (stereo not shown) [Example 79] .
Ans. > 20 µM
